Values were extracted from patent US10167262B2.

- System: morningglory (Ipomoea spp.)
- experiment notes: Test A pre-/postemergence greenhouse herbicide test, visual injury rating 0-100
- Type: in vivo
- condition notes: Postemergence, 500 g ai/ha
recorded metric: Plant response rating (0 to 100 scale), Morningglory
Give bare numbers.

Some entries whose results are on file:
>>> endpoint_result("O=C(c1ccccc1)c1cn(C(=O)C2CC2)nc1-c1cc(Cl)cc(Cl)c1 [Compound 26]")
0
>>> endpoint_result("C#CCn1cc(C(=O)c2cccnc2)c(-c2cc(Cl)cc(Cl)c2)n1 [Compound 9]")
0
>>> endpoint_result("CCOC(OCC)(c1cccs1)c1c[nH]nc1-c1cc(Cl)cc(Cl)c1 [Compound 27]")
0
>>> endpoint_result("CON=C(c1cccs1)c1c[nH]nc1-c1cc(Cl)cc(Cl)c1 [Compound 32]")
0
>>> endpoint_result("CCn1cc(C(=NNc2ccccc2)c2ccccc2)c(-c2cc(Cl)cc(Cl)c2)n1 [Compound 36]")
0
>>> endpoint_result("O=C(c1ccccc1)c1cn(CC(F)F)nc1-c1cc(Cl)cc(Cl)c1 [Compound 59]")
0

With those in mind, consider the next compound.
In: Give the measured Plant response rating (0 to 100 scale), Morningglory for Clc1cc(Cl)cc(-c2n[nH]cc2C2(c3ccccc3)SCCS2)c1 [Compound 69]
Out: 0

----------
For each record, write down the corresponding Foxtail, Giant plant response rating.
- Tested on: giant foxtail (Setaria faberii)
- experiment notes: Test E pre-/postemergence greenhouse test, plant response rating 0-100
- Assay type: in vivo
- condition notes: Preemergence, 250 g ai/ha, scale 0 to 100
Answers are plain numbers.

Some entries whose results are on file:
>>> endpoint_result("O=C(c1ccccc1)c1cn(S(=O)(=O)C(F)(F)F)nc1-c1cc(Cl)cc(Cl)c1")
0
>>> endpoint_result("O=C(c1ccccc1)c1cn(S(=O)(=O)CC(F)(F)F)nc1-c1cc(Cl)cc(Cl)c1")
15
>>> endpoint_result("O=C(c1ccccc1)c1cn(S(=O)(=O)CCl)nc1-c1cc(Cl)cc(Cl)c1")
0

With those in mind, consider the next compound.
In: Give the measured Foxtail, Giant plant response rating for O=C(c1ccccc1)c1cn(CO)nc1-c1cc(Cl)cc(Cl)c1
Out: 0

----------
- System: ragweed (common ragweed, Ambrosia elatior)
- experiment notes: Test C pre-/postemergence greenhouse test, plant response rating 0-100;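 further: 0 is no effect and 100 is complete control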
- Format: in vivo
- condition notes: Postemergence, 62 g ai/ha
For each record, write down the corresponding Plant response rating (0 to 100), Ragweed.
Give bare numbers.

Count: 4. Required value per item: Plant response rating (0 to 100), Ragweed.
1. O=C(c1cncc(F)c1)c1c[nH]nc1-c1cc(Cl)cc(Cl)c1
2. Cn1cc(C(=NN2CCCC2)c2ccccc2)c(-c2cc(Cl)c(Cl)c(Cl)c2)n1
3. O=C(c1ccccc1)c1cn(S(=O)(=O)CC(F)(F)F)nc1-c1cc(Cl)cc(Cl)c1
4. Fc1ccccc1NN=C(c1ccccc1)c1c[nH]nc1-c1cc(Cl)cc(Cl)c1

Out:
[70, 0, 20, 15]

----------
For each record, write down the corresponding Plant response rating, Goosegrass.
- System: goosegrass (Eleusine indica)
- experiment notes: Test C postemergence greenhouse test, plant response rating 0-100
- Assay type: in vivo
- condition notes: 250 g ai/ha, scale 0 to 100
One number for each entry.

>>> endpoint_result("Clc1cc(Cl)cc(-c2n[nH]cc2C(=NNc2ccccc2Cl)c2ccccc2)c1")
0

Count: 4. Required value per item: Plant response rating, Goosegrass.
1. CC(C)n1cc(C(=O)c2ccccc2)c(-c2cc(Cl)cc(Cl)c2)n1
2. C=CCn1cc(C(=O)c2ccccc2)c(-c2cc(Cl)cc(Cl)c2)n1
3. Cn1cc(C(=O)c2ccccc2)c(-c2cc(Br)cc(Br)c2)n1
4. CCn1cc(C(=NN2CCCC2)c2ccccc2)c(-c2cc(Cl)cc(Cl)c2)n1

Out:
0
0
5
0
